pKi: −log10 of the molar value.
Record: compiled pKi on Caspase-8 (Homo sapiens, UniProt Q14790) from multiple reports.

{"Compound": "CCOC(=O)c1csc(C2COc3ccccc3O2)n1 (stereo unspecified)", "Result qualifier": "=", "pKi": 4.52}
{"Compound": "CN(Cc1ccc(O)c(C(=O)O)c1)Cc1ccc(C(=O)N[C@@H](CC(=O)O)C(=O)CSCc2ccccc2Cl)s1", "Result qualifier": "=", "pKi": 5.40}
{"Compound": "O=C[C@H](CC(=O)O)NC(=O)c1ccc(CNS(=O)(=O)c2ccc(O)c(C(=O)O)c2)s1", "Result qualifier": "=", "pKi": 7.30}
{"Compound": "O=C(O)C[C@H](NC(=O)c1cnc(CNS(=O)(=O)c2ccc(O)c(C(=O)O)c2)nc1)C(=O)CSCc1ccccc1Cl", "Result qualifier": "=", "pKi": 4.55}
{"Compound": "COC[C@@H]1CCCN1S(=O)(=O)c1ccc2c(c1)C(=O)C(=O)N2", "Result qualifier": "<", "pKi": 4.60}
{"Compound": "FC(F)(F)c1cccc(-c2csc(C3COc4ccccc4O3)n2)c1 (stereo unspecified)", "Result qualifier": "=", "pKi": 5.57}

----------
Collected Ki for Caspase-8 (Homo sapiens) across several studies; compounds listed below.
Rule: Ki below 20 µM gives label 1. Equal to or above 20 µM gives label 0.

{"Compound structure string": "O=C1C(=O)N(Cc2ccccc2)c2ccc([N+](=O)[O-])cc21", "Class": "label 0"}
{"Compound structure string": "CC(C)[C@H](NC(=O)CCc1ccccc1)C(=O)N[C@@H](C)C(=O)N[C@@H](CC(=O)O)C(=O)CCc1ccccc1", "Class": "label 1"}
{"Compound structure string": "O=C1Nc2ccc(S(=O)(=O)N3CCC[C@H]3CNc3ccccc3)cc2C1=O", "Class": "label 0"}
{"Compound structure string": "CC(=O)N[C@@H](Cc1ccc(O)cc1)C(=O)N[C@H](C(=O)N[C@@H](C)C(=O)N[C@@H](CC(=O)O)C(=O)CCCCc1ccccc1)C(C)C", "Class": "label 1"}
{"Compound structure string": "O=C(O)C[C@H](NC(=O)c1ccc(CNS(=O)(=O)c2ccc(O)c(C(=O)O)c2)s1)C(=O)CSCc1ccccc1Cl", "Class": "label 1"}
{"Compound structure string": "O=C(O)C[C@H](NC(=O)c1cnc(CNS(=O)(=O)c2ccc(O)c(C(=O)O)c2)s1)C(=O)CSCc1ccccc1Cl", "Class": "label 1"}
{"Compound structure string": "CN1C(=O)C(=O)c2cc([N+](=O)[O-])ccc21", "Class": "label 0"}
